tested on: NIH3T3 mouse immortalised fibroblasts; assay: MTT cytotoxicity assay, NIH3T3; format: cell-based; settings: 72 hours, read-out: TCS50
pIC50: −log10 of the molar value.
Assay Readout: pIC50

# Compound, Numeric Readout
records = [
    ("CC(=O)OC[C@@]1(C(=O)O)CC[C@]2(C)[C@H](CC[C@@H]3[C@@]4(C)CC[C@H](OC(C)=O)C(C)(C)[C@@H]4CC[C@]32C)C1=O [I.3]", 5.14),
]

====

tested on: HT-29 human colon cancer; test: MTT cytotoxicity assay, HT-29; assay type: cell-based; conditions: 72 hours, read-out: TCS50
pIC50: −log10 of the molar value.

# Compound Structure, pIC50
records = [
    ("CC(=O)OC[C@@]1(C(=O)O)CC[C@]2(C)[C@H](CC[C@@H]3[C@@]4(C)CC[C@H](OC(C)=O)C(C)(C)[C@@H]4CC[C@]32C)C1=O", 5.80),
]

====

test system: K562-FLUD human promyelocytic leukemia, fludarabin resistant; assay: MTT cytotoxicity assay, K562-FLUD; format: cell-based; conditions: 72 hours, read-out: TCS50
Assay Readout: IC50 (nM)

# Compound Structure, Units Symbol, Numeric Readout
data = [
    ("CC(=O)OC[C@@]1(C(=O)O)CC[C@]2(C)[C@H](CC[C@@H]3[C@@]4(C)CC[C@H](OC(C)=O)C(C)(C)[C@@H]4CC[C@]32C)C1=O", "nM", 400),
]

====

tested on: CEM human T-lymphoblastic leukemia; experiment: MTT cytotoxicity screening assay, CEM; type: cell-based; details: CEM cells, as stated in the histone acetylation study; read-out: IC50
pIC50: −log10 of the molar value.

# Compound, System Under Test, pIC50
measured = [
    ("CC(/C=C/C(=O)NO)=C\\[C@@H](C)C(=O)c1ccc(N(C)C)cc1 [TSA, trichostatin A, reference compound]", "CEM human T-lymphoblastic leukemia", 6.62),
    ("CC(=O)OC[C@@]1(C(=O)O)CC[C@]2(C)[C@H](CC[C@@H]3[C@@]4(C)CC[C@H](OC(C)=O)C(C)(C)[C@@H]4CC[C@]32C)C1=O [I.3]", "CEM human T-lymphoblastic leukemia", 5.70),
]

====

tested on: U87MG human glioblastoma; test: MTT cytotoxicity assay, U87MG; assay type: cell-based; conditions: 72 hours, read-out: TCS50

# Compound Structure, Units Symbol, IC50
measured = [
    ("CC(=O)OC[C@@]1(C(=O)O)CC[C@]2(C)[C@H](CC[C@@H]3[C@@]4(C)CC[C@H](OC(C)=O)C(C)(C)[C@@H]4CC[C@]32C)C1=O", "µM", 5.1),
]

====

test system: OVCAR-3 human ovarian cancer; assay: MTT cytotoxicity assay, OVCAR-3; type: cell-based; settings: 72 hours, read-out: TCS50
pIC50: −log10 of the molar value.

# Compound Structure, pIC50
data = [
    ("CC(=O)OC[C@@]1(C(=O)O)CC[C@]2(C)[C@H](CC[C@@H]3[C@@]4(C)CC[C@H](OC(C)=O)C(C)(C)[C@@H]4CC[C@]32C)C1=O", 6.00),
]

====

tested on: CEM-VCR 3/D5 human T-lymphoblastic leukemia, vincristin resistant; experiment: MTT cytotoxicity assay, CEM-VCR 3/D5; format: cell-based; details: 72 hours, read-out: TCS50
Assay Readout: IC50 (nM)

# Compound Structure, Numeric Readout
rows = [
    ("CC(=O)OC[C@@]1(C(=O)O)CC[C@]2(C)[C@H](CC[C@@H]3[C@@]4(C)CC[C@H](OC(C)=O)C(C)(C)[C@@H]4CC[C@]32C)C1=O", 2900),
]
